- Tested on: ACVR1
- measurement parameters: concentration: 1 μM, replicates: in singlicate; n = 1
endpoint name: %Inh (%)
Hi! Could you send only the number? It should be in %, unit omitted.

Use these answered entries as a reference point.
[in] Need %Inh, item `CCC(=O)c1c(-c2ccccc2)c2cc(Cl)ccc2c(=O)n1Cc1cc(S(C)(=O)=O)n(CC(F)F)n1`
[out] 0

[in] Entry under review: `COc1cc2nccc(Nc3ccc(OCc4ccc(NC(C)=O)cc4)cc3)c2cc1OC.Cl` . Reported %Inh?
[out] 25

New cases:
[in] Sample `COc1ccc(-n2cnc3c(N)ncnc32)cc1` — what was its %Inh?
[out] 7

[in] Field request: %Inh | item: `Nc1n[nH]c2ncc(-c3ccccc3)cc12`
[out] 8

[in] So what's the measured %Inh for this one? `COC(=O)c1c(-c2ccccc2)c2cc(Br)ccc2c(=O)n1Cc1ccc(S(C)(=O)=O)cc1`
[out] 15

----------
- System: YES;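 also: kd values determined as follow-up on hits from a single-replicate KINOMEscan panel screen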
- Construct: gene YES1
endpoint name: Kd

[in] Lab note: need Kd with YES for entry `COc1cc(OC)cc(-c2cc3cnc(N)nc3nc2NC(=O)NC(C)(C)C)c1` , please look it up.
[out] > 10 µM

----------
Parameter: %Inh. Scope: all listed entries.
- Tested on: CDK7
- measurement parameters: concentration: 1 μM, replicates: in singlicate; n = 1
Numbers only; they are read as %.

These recorded examples may help you get a feel for the data.
[in] Given the entry `Cc1cc(Nc2nc(-c3cccc(C)n3)nc3ccccc23)ccn1` , report its measured %Inh.
[out] 0

[in] Sample `C[C@@H]1CC[C@H](C(=O)NC2CCCCC2)CN1c1cc(-c2ccc3c(N)n[nH]c3c2)nc(N)n1` — what was its %Inh?
[out] 0

[in] Look up %Inh for this compound: `CCc1ccc(-c2ccc3c(c2)-c2nn(C)cc2S(=O)(=O)N3C)cc1`
[out] 0

Others:
[in] Look up %Inh: `CCC(=O)c1c(-c2ccccc2)c2cc(Cl)ccc2c(=O)n1Cc1cc(S(C)(=O)=O)n(CC(F)F)n1`
[out] 0

[in] What does the record list as %Inh for `O=C(Nc1n[nH]c2cc(-c3ccccc3F)ccc12)C1CC1` ?
[out] 0

[in] Any idea what its %Inh is? The compound is `COC(=O)c1c(-c2ccccc2)c2cc(Br)ccc2c(=O)n1Cc1ccc(S(C)(=O)=O)cc1`
[out] 29

[in] # %Inh lookup, item `CCS(=O)(=O)c1ccc(OC)c(Nc2ncc(-c3ccc(F)cc3)o2)c1.Cl`
[out] 0

[in] Sample `CCn1c(-c2nonc2N)nc2ccccc21` — what was its %Inh?
[out] 20

[in] # lookup: %Inh of `COC(=O)c1c(-c2ccccc2)c2cc(Br)ccc2c(=O)n1Cc1ccc(NC(=O)CCC(=O)O)cc1`
[out] 5

[in] What measured %Inh goes with Cc1nnc(-c2ccc3ncn(-c4ccc(S(C)=O)cc4)c3c2)o1 (stereo not shown) ?
[out] 0

[in] // returns reported %Inh for input `COc1cccc(C2=C(N(C)c3ccccc3)C(=O)NC2=O)c1`
[out] 0

[in] %Inh for `O=c1cc(N2CCOCC2)nc2n(Cc3ccc(F)c(Cl)c3)ccn12` ?
[out] 0

[in] Entry under review: `COc1ccc(-n2cnc3c(N)ncnc32)cc1` . Reported %Inh?
[out] 11

Reference source for all entries: paper PMC5540273
